Biological target: Protein RecA (Mycobacterium tuberculosis, UniProt P9WHJ3)
Assay: Fluorescence Cell-Free Homogeneous Dose Retest to Identify Inhibitors of RecA-Intein Splicing Activity. [Related pubchem assays (depositor defined):AID2097, AID2223, AID489010, AID492950]
Type: functional
The source made the active and inactive calls.
Classes used: TRUE for active, FALSE for inactive

{"molecule": "O=C(c1ccc(N2CCN(CCO)CC2)nc1)N1CCOCC1", "categoryLabel": "FALSE"}
{"molecule": "Cc1cc(C)n2nc(CNS(=O)(=O)c3c(F)c(F)c(F)c(F)c3F)nc2n1", "categoryLabel": "TRUE"}
{"molecule": "CC1=NN(c2ccccc2)C(=O)C1=C(C)C", "categoryLabel": "TRUE"}
{"molecule": "Cc1nc(COC(=O)c2cc(O)c3ccccc3c2O)cs1", "categoryLabel": "TRUE"}
{"molecule": "O=C(Cc1ccccc1Cl)NC1(O)C(=O)c2ccccc2C1=O", "categoryLabel": "TRUE"}
{"molecule": "CCCc1n[nH]c(O)c1C(c1ccc(Cl)cc1)C(C#N)C#N (stereo unspecified)", "categoryLabel": "TRUE"}

###

Biological target: Voltage-dependent T-type calcium channel subunit alpha-1H (Homo sapiens, UniProt O95180);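 note: channel activity triggered by adding a high calcium stimulation buffer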
Sequence (O95180 whole entry): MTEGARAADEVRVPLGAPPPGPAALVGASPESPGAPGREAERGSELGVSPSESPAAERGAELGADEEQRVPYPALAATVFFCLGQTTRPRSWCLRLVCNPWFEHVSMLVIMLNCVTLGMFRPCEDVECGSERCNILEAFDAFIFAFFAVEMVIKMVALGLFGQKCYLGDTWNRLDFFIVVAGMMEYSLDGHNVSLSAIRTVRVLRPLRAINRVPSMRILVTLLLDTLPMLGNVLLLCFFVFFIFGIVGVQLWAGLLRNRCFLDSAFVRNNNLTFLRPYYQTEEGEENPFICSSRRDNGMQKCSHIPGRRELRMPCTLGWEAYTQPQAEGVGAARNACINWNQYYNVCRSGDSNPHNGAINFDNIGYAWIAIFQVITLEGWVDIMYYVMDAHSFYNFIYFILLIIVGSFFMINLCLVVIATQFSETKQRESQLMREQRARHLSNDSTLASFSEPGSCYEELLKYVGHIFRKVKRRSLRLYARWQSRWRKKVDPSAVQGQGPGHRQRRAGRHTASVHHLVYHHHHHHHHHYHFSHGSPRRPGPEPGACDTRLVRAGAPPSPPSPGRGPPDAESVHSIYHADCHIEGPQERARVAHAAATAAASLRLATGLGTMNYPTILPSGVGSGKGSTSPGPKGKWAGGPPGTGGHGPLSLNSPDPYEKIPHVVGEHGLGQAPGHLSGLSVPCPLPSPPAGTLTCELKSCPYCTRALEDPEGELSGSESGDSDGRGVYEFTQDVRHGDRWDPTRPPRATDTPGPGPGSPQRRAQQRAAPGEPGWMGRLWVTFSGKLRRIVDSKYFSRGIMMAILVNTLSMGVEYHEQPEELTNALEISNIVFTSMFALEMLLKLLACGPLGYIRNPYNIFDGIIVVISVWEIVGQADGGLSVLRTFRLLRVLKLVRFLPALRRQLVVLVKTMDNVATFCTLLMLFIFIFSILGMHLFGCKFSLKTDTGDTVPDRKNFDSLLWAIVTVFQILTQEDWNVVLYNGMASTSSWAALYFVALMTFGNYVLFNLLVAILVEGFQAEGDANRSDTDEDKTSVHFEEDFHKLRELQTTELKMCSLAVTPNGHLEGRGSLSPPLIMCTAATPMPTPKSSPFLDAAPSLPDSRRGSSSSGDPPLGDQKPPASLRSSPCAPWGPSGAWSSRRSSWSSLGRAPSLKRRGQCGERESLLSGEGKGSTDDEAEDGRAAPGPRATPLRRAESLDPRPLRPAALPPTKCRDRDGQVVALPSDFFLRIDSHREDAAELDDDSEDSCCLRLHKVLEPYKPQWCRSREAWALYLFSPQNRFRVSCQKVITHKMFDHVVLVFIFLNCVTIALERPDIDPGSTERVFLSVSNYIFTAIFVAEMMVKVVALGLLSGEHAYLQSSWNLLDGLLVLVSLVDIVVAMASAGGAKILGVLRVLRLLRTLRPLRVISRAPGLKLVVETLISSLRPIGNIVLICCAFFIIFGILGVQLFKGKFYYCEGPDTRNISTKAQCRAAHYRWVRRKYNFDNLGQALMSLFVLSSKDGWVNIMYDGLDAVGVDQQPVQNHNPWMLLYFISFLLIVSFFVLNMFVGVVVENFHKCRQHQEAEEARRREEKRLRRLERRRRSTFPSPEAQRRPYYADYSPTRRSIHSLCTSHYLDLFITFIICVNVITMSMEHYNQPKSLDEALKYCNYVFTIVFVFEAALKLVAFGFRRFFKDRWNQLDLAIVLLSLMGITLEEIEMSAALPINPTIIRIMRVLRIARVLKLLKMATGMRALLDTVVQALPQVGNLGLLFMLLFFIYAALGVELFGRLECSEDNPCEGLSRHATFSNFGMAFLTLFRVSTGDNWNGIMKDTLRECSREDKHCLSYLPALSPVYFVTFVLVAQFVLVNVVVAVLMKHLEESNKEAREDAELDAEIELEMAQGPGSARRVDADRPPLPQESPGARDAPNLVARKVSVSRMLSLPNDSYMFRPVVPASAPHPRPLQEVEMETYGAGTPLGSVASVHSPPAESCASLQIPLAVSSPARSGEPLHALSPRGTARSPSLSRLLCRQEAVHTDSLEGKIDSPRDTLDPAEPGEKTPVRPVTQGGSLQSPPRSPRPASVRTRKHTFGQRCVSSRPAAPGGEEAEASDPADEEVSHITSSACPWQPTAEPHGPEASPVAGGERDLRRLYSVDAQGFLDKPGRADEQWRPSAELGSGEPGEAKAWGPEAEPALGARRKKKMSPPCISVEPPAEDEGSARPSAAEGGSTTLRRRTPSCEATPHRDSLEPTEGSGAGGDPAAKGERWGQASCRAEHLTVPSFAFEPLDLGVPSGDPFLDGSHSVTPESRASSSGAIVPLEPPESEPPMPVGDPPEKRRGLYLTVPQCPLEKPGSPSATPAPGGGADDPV
Assay type: functional
Active and inactive are the calls of the source.
readoutLabel: EC50

{"compound": "Cc1ccc(C(=O)NCc2ccc3c(c2)OCO3)cc1S(=O)(=O)N1CCCCC1", "targetOrTestSystem": "Voltage-dependent T-type calcium channel subunit alpha-1H (Homo sapiens, UniProt O95180)", "testValue": "5.23 µM (active)"}
{"compound": "CC1CCCCN1C(=O)CSCC(=O)Nc1nc(-c2cccs2)cs1 (stereo unspecified)", "targetOrTestSystem": "Voltage-dependent T-type calcium channel subunit alpha-1H (Homo sapiens, UniProt O95180)", "testValue": "4.06 µM (active)"}
{"compound": "CC(C(=O)OCC(=O)Nc1ccc(S(=O)(=O)N2CCCCC2)cc1)N1C(=O)c2ccccc2C1=O (stereo unspecified)", "targetOrTestSystem": "Voltage-dependent T-type calcium channel subunit alpha-1H (Homo sapiens, UniProt O95180)", "testValue": "5.44 µM (active)"}
{"compound": "CCCCOC(=O)n1c(=O)oc2cc(S(=O)(=O)N3CCCCC3)ccc21", "targetOrTestSystem": "Voltage-dependent T-type calcium channel subunit alpha-1H (Homo sapiens, UniProt O95180)", "testValue": "4.48 µM (active)"}
{"compound": "COc1ccc(OC)c2sc(NC(=O)C3COc4ccccc4O3)nc12 (stereo unspecified)", "targetOrTestSystem": "Voltage-dependent T-type calcium channel subunit alpha-1H (Homo sapiens, UniProt O95180)", "testValue": "78 µM (active)"}
{"compound": "O=C(CCSc1ccc(Cl)c(Cl)c1)NC12CC3CC(CC(C3)C1)C2", "targetOrTestSystem": "Voltage-dependent T-type calcium channel subunit alpha-1H (Homo sapiens, UniProt O95180)", "testValue": "5.57 µM (active)"}

###

Target: Serine/threonine-protein kinase pim-1 (Homo sapiens, UniProt P11309)
Sequence (P11309 whole entry): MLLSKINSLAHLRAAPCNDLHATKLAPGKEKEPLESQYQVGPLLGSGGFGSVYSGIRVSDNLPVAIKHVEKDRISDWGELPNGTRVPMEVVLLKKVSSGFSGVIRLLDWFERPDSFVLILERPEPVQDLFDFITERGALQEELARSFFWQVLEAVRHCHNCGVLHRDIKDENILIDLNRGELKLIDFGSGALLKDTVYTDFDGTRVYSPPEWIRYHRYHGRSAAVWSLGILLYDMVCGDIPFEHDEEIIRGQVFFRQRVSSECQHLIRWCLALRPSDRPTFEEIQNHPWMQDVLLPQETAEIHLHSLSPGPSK
Assay type: functional
The source made the active and inactive calls.
Outcomes: true (1) = active, false (0) = inactive

{"compound": "COCC(C)Nc1cc(-c2c[nH]c3ncccc23)cc(Cl)n1 (centres undefined)", "targetOrTestSystem": "Serine/threonine-protein kinase pim-1 (Homo sapiens, UniProt P11309)", "categoryLabel": "true (1)"}
{"compound": "O=C(Nc1cc(-c2c[nH]c3ncccc23)cc(Cl)n1)c1ccccc1", "targetOrTestSystem": "Serine/threonine-protein kinase pim-1 (Homo sapiens, UniProt P11309)", "categoryLabel": "false (0)"}
{"compound": "Nc1c(-c2ccc(NC(=O)Nc3cccc(C(F)(F)F)c3)cc2)cnc2c(-c3ccc4c(c3)OCO4)cnn12", "targetOrTestSystem": "Serine/threonine-protein kinase pim-1 (Homo sapiens, UniProt P11309)", "categoryLabel": "false (0)"}
{"compound": "c1ccc(Cn2cc(-c3ccc4[nH]nc(-c5ccccc5)c4c3)nn2)cc1", "targetOrTestSystem": "Serine/threonine-protein kinase pim-1 (Homo sapiens, UniProt P11309)", "categoryLabel": "true (1)"}
